These measurements were taken from patent US20130137856A1.

Tested Target: β2AR (Homo sapiens)
Protocol Details: [3H]-DHA saturation binding on β2AR reconstituted in HDL particles
Conditions: read-out: [3H]-DHA saturation binding Kd ± S.E.
Sequence (P07550 1-365 limits assumed): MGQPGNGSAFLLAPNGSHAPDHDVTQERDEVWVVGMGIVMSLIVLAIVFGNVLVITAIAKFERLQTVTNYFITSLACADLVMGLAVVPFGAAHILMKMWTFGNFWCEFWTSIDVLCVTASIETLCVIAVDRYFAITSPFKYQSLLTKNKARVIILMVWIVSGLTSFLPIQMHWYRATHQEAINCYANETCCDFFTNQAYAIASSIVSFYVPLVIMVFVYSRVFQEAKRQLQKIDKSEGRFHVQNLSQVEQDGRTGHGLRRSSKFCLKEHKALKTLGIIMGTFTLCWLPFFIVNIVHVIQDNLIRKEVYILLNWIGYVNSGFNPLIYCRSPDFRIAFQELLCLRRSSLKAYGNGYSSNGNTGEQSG
Observed Property: Kd
Reply with the number, then its unit.

The compound CCCc1ccccc1OCC(O)CNC(C)C (stereo not shown) [[^3H]-DNA, [^3H]-dihydroalprenolol] , tested on β2AR (Homo sapiens), showed Kd of 0.55 nM

---

Would you mind telling me the reported Potency shift (ratio of IC50 with irrelevant Nb to IC50 with Nb80) of each entry?
Tested Target: β2AR (Homo sapiens, UniProt P07550)
Protocol Details: Competition radioligand binding on commercial insect cell membranes with full-length human β2AR, Nb80 versus irrelevant Nb
Conditions: 500 nM Nb80 or irrelevant Nb; 2 nM 3H-DHA radioligand
Sequence (P07550 whole entry): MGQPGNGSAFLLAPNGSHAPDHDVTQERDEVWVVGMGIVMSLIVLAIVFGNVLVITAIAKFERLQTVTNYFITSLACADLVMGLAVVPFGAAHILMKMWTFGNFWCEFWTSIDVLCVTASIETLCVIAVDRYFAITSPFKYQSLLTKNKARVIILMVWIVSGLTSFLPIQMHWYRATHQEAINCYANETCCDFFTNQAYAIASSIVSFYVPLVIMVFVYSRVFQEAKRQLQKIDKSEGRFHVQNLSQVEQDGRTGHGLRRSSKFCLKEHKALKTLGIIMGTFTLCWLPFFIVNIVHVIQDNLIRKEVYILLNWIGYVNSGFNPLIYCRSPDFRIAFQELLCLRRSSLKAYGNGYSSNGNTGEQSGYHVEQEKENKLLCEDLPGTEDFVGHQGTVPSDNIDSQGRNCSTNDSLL
Structures can show the parent of a compound that is named as a salt.
Numbers only.

Answered cases to consult:
The compound CC(NCCc1ccc(O)cc1)C(O)c1ccc(O)cc1 (stereo not shown) [ritodrine, ritodrine hydrochloride] , tested on β2AR (Homo sapiens, UniProt P07550), showed Potency shift (ratio of IC50 with irrelevant Nb to IC50 with Nb80) of 2.7

The compound CCC(NC(C)C)C(O)c1ccc(O)c2[nH]c(=O)ccc12 (stereo not shown) [procaterol, procaterol hydrochloride] , tested on β2AR (Homo sapiens, UniProt P07550), showed Potency shift (ratio of IC50 with irrelevant Nb to IC50 with Nb80) of 2.3

The compound CC(Cc1ccc(O)cc1)NCC(O)c1cc(O)cc(O)c1 (stereo not shown) [fenoterol, fenoterol hydrobromide] , tested on β2AR (Homo sapiens, UniProt P07550), showed Potency shift (ratio of IC50 with irrelevant Nb to IC50 with Nb80) of 3.7

Further cases:
The compound CC(CCc1ccc(O)cc1)NCCc1ccc(O)c(O)c1 (stereo not shown) [dobutamine, dobutamine hydrochloride] , tested on β2AR (Homo sapiens, UniProt P07550), showed Potency shift (ratio of IC50 with irrelevant Nb to IC50 with Nb80) of 2.3

---

Tested Target: β2AR-T4L (Homo sapiens, UniProt P07550, DEL231-262, form not given)
Construct: The β2AR and β2AR-T4L (both truncated at position 365) purified as previously described (Rosenbaum et al. 2007); fused on or other part: T4 lysozyme (in the cited construct residues 2-161, C54T/C97A) inserted in place of the third intracellular loop as a crystallisation aid
Protocol Details: [3H]-DHA saturation binding on β2AR-T4L reconstituted in HDL particles
Conditions: read-out: [3H]-DHA saturation binding Kd ± S.E.
Observed Property: Kd
Reply with the number, then its unit.

In plain terms, CCCc1ccccc1OCC(O)CNC(C)C (stereo not shown) [[^3H]-DNA, [^3H]-dihydroalprenolol] has a documented Kd of 0.42 nM
